Measured residual activity, listed per entry.
molecular target: ACVRL1 (human); experiment: radiometric filter-binding kinase assay, Kinase HotSpot; conditions: compound 0.5 µM; ATP 10 µM
Give a bare numeral; the unit % is implied.

FC(F)(F)c1ccc(/C=C/c2nc(COc3ccc(CCCCn4ccnn4)cc3)co2)cc1
103
O=C1NC(=O)c2cc(Nc3ccc(F)cc3)c(Nc3ccc(F)cc3)cc21
95.9
O=c1c(-c2ccc(F)cc2)c(-c2ccncc2)[nH]n1-c1ccc(Cl)cc1
88.1
N#Cc1c(NC(=O)c2cccc3ccccc23)sc2c1CCCC2
107

With those in mind, consider the next compound.
Note to self: residual activity of `O=c1cc(N2CCOCC2)oc2c(-c3ccccc3)cccc12` with ACVRL1 (human) was 91.9
